Target: EGFR (G719S) (Homo sapiens, UniProt P00533, G719S)
Sequence (P00533 25-1210 G719S): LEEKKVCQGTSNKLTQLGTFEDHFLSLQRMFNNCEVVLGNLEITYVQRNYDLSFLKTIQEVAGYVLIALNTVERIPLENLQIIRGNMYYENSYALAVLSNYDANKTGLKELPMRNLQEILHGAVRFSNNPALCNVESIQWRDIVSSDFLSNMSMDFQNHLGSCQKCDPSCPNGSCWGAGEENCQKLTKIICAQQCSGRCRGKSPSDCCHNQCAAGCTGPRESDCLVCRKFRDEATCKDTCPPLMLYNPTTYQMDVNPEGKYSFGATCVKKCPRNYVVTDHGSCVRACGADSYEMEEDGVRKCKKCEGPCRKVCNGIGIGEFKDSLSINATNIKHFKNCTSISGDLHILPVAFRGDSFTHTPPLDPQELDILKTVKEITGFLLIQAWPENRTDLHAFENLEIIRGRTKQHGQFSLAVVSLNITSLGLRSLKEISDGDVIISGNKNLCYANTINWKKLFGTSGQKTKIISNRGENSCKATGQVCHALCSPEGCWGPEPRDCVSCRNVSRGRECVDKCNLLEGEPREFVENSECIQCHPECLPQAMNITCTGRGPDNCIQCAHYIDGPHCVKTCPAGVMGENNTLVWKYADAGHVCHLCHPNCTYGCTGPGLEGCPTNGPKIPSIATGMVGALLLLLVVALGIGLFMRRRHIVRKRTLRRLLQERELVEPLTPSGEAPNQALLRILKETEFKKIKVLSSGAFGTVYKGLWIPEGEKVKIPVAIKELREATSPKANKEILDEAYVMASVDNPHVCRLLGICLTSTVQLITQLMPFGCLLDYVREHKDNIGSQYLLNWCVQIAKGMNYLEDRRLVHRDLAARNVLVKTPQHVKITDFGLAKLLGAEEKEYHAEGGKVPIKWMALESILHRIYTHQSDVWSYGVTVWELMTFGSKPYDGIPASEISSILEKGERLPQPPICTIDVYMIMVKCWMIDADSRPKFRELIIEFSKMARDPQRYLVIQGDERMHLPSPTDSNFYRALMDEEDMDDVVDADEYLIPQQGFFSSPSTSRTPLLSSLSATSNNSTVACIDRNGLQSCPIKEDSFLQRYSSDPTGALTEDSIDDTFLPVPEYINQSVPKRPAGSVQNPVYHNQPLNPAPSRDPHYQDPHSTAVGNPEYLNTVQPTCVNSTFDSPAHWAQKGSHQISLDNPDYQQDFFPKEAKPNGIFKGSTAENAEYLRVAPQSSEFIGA
Assay: KinaseSeeker competition binding assay
Details: 8-point curve, duplicate
Experimental: […] KinaseSeeker is a homogeneous competition binding assay where the displacement of an active site dependent probe by an inhibitor is measured by a change in luminescence signal (see FIG. 7). Luminescence readout translates into a highly sensitive and robust assay with low background and minimal interference from test compounds. […] The % Inhibition and % Activity Remaining were calculated using the following equations: […]
quantity: pIC50
Value format note: pIC50 is -log10 of concentration (mol/L); just state the number.

Ask | Sample "C#Cc1cccc(Nc2ncnc3cc(OCCOC)c(NC(=O)c4ccc(F)c([N+](=O)[O-])c4)cc23)c1" — what was its pIC50?
Reply | 6.01
